Test: Solubility in PBS
Format: physicochemical
Conditions: Solubility (uM)
Experimental: After ultracentrifugation of the PBS solution, the supernatant was analyzed by HPLC and compared to an HPLC injection 50 μM peptide DMSO solution. Solubility was determined by: [(Area of PBS peak)/(Area of DMSO peak)]*50 uM.
reported property: Solubility (µM)
State the answer as a number, implicitly in µM.

Supply Solubility value. Item: CC(=O)N1CCC[C@]12CC=CCCCC1(CCCC=CCCCOC(=O)N3CC[C@@](C(=O)N[C@@H](Cc4ccsc4)C(=O)N[C@@H](Cc4csc5ccccc45)C(=O)N[C@@H](CCC(N)=O)C(N)=O)(C3)NC(=O)[C@H](CC(N)=O)NC(=O)[C@H](Cc3ccccc3)NC(=O)[C@H](CCCCNC(=O)CN3CCN(C)CC3)NC(=O)[C@H](C)NC(=O)[C@H](CC(=O)O)NC(=O)[C@H](CC(=O)O)NC1=O)NC(=O)[C@H](CC(C)(C)C)NC(=O)[C@H](CC(=O)O)NC2=O (stereo partly shown) [I-887]
46

====

Target: beta-catenin/TCF4 engagement (Homo sapiens)
Construct: expressed in transfected cells; host or cells: HEK293
Sequence (P35222 1-781): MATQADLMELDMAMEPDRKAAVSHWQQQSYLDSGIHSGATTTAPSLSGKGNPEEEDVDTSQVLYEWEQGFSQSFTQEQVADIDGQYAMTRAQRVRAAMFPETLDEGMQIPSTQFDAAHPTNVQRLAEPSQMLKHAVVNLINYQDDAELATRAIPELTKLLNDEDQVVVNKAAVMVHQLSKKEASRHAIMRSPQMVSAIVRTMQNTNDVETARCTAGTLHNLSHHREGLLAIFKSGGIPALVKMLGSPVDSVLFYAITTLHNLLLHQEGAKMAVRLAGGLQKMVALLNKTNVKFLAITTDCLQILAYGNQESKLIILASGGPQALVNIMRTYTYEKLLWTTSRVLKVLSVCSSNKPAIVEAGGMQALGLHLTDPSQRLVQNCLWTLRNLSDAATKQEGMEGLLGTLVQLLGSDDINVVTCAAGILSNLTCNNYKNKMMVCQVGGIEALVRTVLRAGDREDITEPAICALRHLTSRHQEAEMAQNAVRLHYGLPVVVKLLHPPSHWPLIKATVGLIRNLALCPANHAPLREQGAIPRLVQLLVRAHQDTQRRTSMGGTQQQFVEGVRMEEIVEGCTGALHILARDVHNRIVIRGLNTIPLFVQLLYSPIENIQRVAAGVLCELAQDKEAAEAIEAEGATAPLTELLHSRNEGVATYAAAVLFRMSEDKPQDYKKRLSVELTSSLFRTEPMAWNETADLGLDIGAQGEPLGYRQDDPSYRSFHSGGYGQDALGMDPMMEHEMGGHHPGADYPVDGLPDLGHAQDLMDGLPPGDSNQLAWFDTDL
Assay: Nano-BRET target engagement assay (B-cat-Halo & TCF4-Luc in HEK293 cells)
Type: cell-based
Settings: absolute IC50; read-out: NanoBRET Abs IC50
This section presents compounds with their documented IC50 values.
State the answer as a number, implicitly in µM.

compound	result number
CC(=O)N1CCC[C@]12CC=CCCCC1(CCCC=CCCCOC(=O)N3CC[C@@](C(=O)N[C@@H](Cc4ccccc4Cl)C(=O)N[C@@H](Cc4csc5ccccc45)C(=O)N[C@@H](CCCN4CCC(F)(F)CC4)C(N)=O)(C3)NC(=O)[C@H]([C@@H](C)O)NC(=O)[C@H](Cc3ccccc3)NC(=O)[C@H](C)NC(=O)[C@H](C)NC(=O)[C@H](CN(CC(=O)O)CC(F)(F)F)NC(=O)[C@H](CC(=O)O)NC1=O)NC(=O)[C@H](CC(C)(C)C)NC(=O)[C@H](CC(=O)O)NC2=O (some centres unmarked)	11.9
CC(=O)N1CCC[C@]12CC=CCCCC1(CCCC=CCCCOC(=O)N3CC[C@@](C(=O)N[C@@H](Cc4ccccc4Cl)C(=O)N[C@@H](Cc4csc5ccccc45)C(=O)N[C@@H](CO)C(N)=O)(C3)NC(=O)[C@H](CC(N)=O)NC(=O)[C@H](Cc3ccccc3)NC(=O)[C@H](C)NC(=O)[C@H](C)NC(=O)[C@H](CC(=O)O)NC(=O)[C@H](CC(=O)O)NC1=O)NC(=O)[C@H](Cc1ccccc1)NC(=O)[C@H](CC(=O)O)NC2=O (some centres unmarked)	28.4

Supply IC50 value. Item: CC(=O)N1CCC[C@]12CC=CCCCC1(CCCC=CCCCOC(=O)N3CC[C@@](C(=O)N[C@@H](Cc4ccccc4C(F)(F)F)C(=O)N[C@@H](Cc4ccc(C)c(C)c4)C(=O)N[C@@H](C)C(N)=O)(C3)NC(=O)[C@H](CC(C)C)NC(=O)[C@H](Cc3ccccc3)NC(=O)[C@H](C)NC(=O)[C@H](CCC(N)=O)NC(=O)[C@H](Cc3cccc(C(=O)O)c3)NC(=O)[C@H](CC(=O)O)NC1=O)NC(=O)[C@H](CC(C)(C)C)NC(=O)[C@H](CC(=O)O)NC2=O (some centres unmarked)
4.6

Supply IC50 value. Item: CC(=O)N1CCC[C@]12CC=CCCCC1(CCCC=CCCCOC(=O)N3CC[C@@](C(=O)N[C@@H](Cc4ccsc4)C(=O)N[C@@H](Cc4csc5ccccc45)C(=O)N[C@@H](CCC(N)=O)C(N)=O)(C3)NC(=O)[C@H](Cc3ccc(C(F)(F)F)cc3)NC(=O)[C@H](Cc3ccccc3)NC(=O)[C@H](C)NC(=O)[C@H](C)NC(=O)[C@H](CC(=O)O)NC(=O)[C@H](CC(=O)O)NC1=O)NC(=O)[C@H](CC(C)(C)C)NC(=O)[C@H](CC(=O)O)NC2=O (some centres unmarked)
9.7

Supply IC50 value. Item: CC(=O)N1CCC[C@]12CC=CCCCC1(CCCC=CCCCOC(=O)N3CC[C@@](C(=O)N[C@@H](Cc4ccccc4Cl)C(=O)N[C@@H](Cc4csc5ccccc45)C(=O)N[C@@H](CCC(N)=O)C(N)=O)(C3)NC(=O)[C@H](CO)NC(=O)[C@H](Cc3ccccc3)NC(=O)[C@H](C)NC(=O)[C@H](C)NC(=O)[C@H](CC(=O)O)NC(=O)[C@H](CC(=O)O)NC1=O)NC(=O)[C@H](CC(C)(C)C)NC(=O)[C@H](CC(=O)O)NC2=O (some centres unmarked)
8.9

====

experiment: Solubility in PBS; assay type: physicochemical
This section presents molecules with their documented Solubility values.
State the answer as a number, implicitly in µM.

Examples from the recorded data:
molecule	Solubility [µM]
CC(=O)N1CCC[C@]12CC=CCCCC1(CCCC=CCCCOC(=O)N3CC[C@@](C(=O)N[C@@H](Cc4ccccc4Cl)C(=O)N[C@@H](Cc4csc5ccccc45)C(=O)N[C@@H](CO)C(N)=O)(C3)NC(=O)[C@H](CC3CCCCC3)NC(=O)[C@H](Cc3ccccc3)NC(=O)[C@H](C)NC(=O)[C@H](C)NC(=O)[C@H](CC(=O)O)NC(=O)[C@H](CC(=O)O)NC1=O)NC(=O)[C@H](CC1CCCCC1)NC(=O)[C@H](CC(=O)O)NC2=O (some centres unmarked)	10
CC(=O)N1CCC[C@]12CC=CCCCC1(CCCC=CCCCCCC[C@@](C)(C(=O)N[C@@H](Cc3ccccc3Cl)C(=O)N[C@@H](Cc3csc4ccccc34)C(=O)N[C@@H](CCC(N)=O)C(N)=O)NC(=O)[C@H]([C@@H](C)O)NC(=O)[C@H](Cc3ccccc3)NC(=O)[C@H](C)NC(=O)[C@H](C)NC(=O)[C@H](CCC(=O)O)NC(=O)[C@H](CC(=O)O)NC1=O)NC(=O)[C@H](CC(C)(C)C)NC(=O)[C@H](CC(=O)O)NC2=O (some centres unmarked) [I-1088]	44
CC(=O)N1CCC[C@]12CC=CCCCC1(CCCC=CCCCCCC[C@@](C)(C(=O)N[C@@H](Cc3ccccc3)C(=O)N[C@@H](C)C(=O)N[C@@H](CCC(N)=O)C(N)=O)NC(=O)[C@H](C(C)C)NC(=O)[C@H](Cc3ccccc3)NC(=O)[C@H](C)NC(=O)[C@H](C)NC(=O)[C@H](CC(=O)O)NC(=O)[C@H](CC(=O)O)NC1=O)NC(=O)[C@H](C)NC(=O)[C@H](CC(=O)O)NC2=O (some centres unmarked) [I-358]	50
CC(=O)N1CCC[C@]12CC=CCCCC1(CCCC=CCCCOC(=O)N3CC[C@@](C(=O)N[C@@H](Cc4ccccc4)C(=O)N[C@@H](Cc4ccc5ccccc5c4)C(=O)N[C@@H](CCC(N)=O)C(N)=O)(C3)NC(=O)[C@H](CC(C)C)NC(=O)[C@H](Cc3ccccc3)NC(=O)[C@H](C)NC(=O)[C@H](C)NC(=O)[C@H]([C@@H](C)O)NC(=O)[C@H](CC(=O)O)NC1=O)NC(=O)[C@H](CC(C)(C)C)NC(=O)[C@H](CC(N)=O)NC2=O (single isomer, unassigned) [I-1291]	10

Please examine the following record next.
Supply Solubility value. Item: CC(=O)N1CCC[C@]12CC=CCCCC1(CCCC=CCCCOC(=O)N3CC[C@@](C(=O)N[C@@H](Cc4ccsc4)C(=O)N[C@@H](Cc4csc5ccccc45)C(=O)N[C@@H](CCC(N)=O)C(N)=O)(C3)NC(=O)[C@H](CC(N)=O)NC(=O)[C@H](Cc3ccccc3)NC(=O)[C@H](C)NC(=O)[C@H](C)NC(=O)[C@H](Cc3cccc(C(=O)O)c3)NC(=O)[C@H](CC(=O)O)NC1=O)NC(=O)[C@H](CC(C)(C)C)NC(=O)[C@H](CC(=O)O)NC2=O (some centres unmarked) [I-977]
46
